Each entry below carries its reported relative IC50.
- Tested on: YST-1
- ASSAY_INFO: relative IC50 (inflection point of fitted dose-response curve, CellTiter-Glo viability, 72 h; top asymptote may be below 50% inhibition); higher = less potent
The reply should contain only the number, in µM.

O=c1[nH]cc(F)c(=O)[nH]1 [Fluorouracil] : 3.28

// query Give its relative IC50 value. Item: O=C(c1cccc(Cl)c1F)N1CCN(Cc2cccc(Nc3nccs3)n2)CC1 [MK-8745]
// result 0.231

// query Field request: relative IC50 | item: O=C(O)C(=O)O.[NH-][C@@H]1CCCC[C@H]1[NH-].[Pt+2] [Oxaliplatin]
// result 1.97

// query Which relative IC50 is listed for Cc1cc(Nc2cc(N3CCN(C)CC3)nc(Sc3ccc(NC(=O)C4CC4)cc3)n2)n[nH]1 [Tozasertib] ?
// result 0.0421

// query Entry under review: COc1cc([C@@H]2c3cc4c(cc3[C@@H](O[C@@H]3O[C@@H]5CO[C@@H](C)O[C@H]5[C@H](O)[C@H]3O)[C@H]3COC(=O)[C@H]23)OCO4)cc(OC)c1O [Etoposide] . Reported relative IC50?
// result 0.175

---

Each entry below carries its reported % inhibition.
- Tested on: HS-PSS
- ASSAY_INFO: % inhibition of CellTiter-Glo viability at highest tested concentration (72 h), relative to DMSO and benzethonium chloride controls; higher = more inhibition
Please reply with the bare figure in % and do not write the unit itself.

# count of solved cases: 2
CC(C)C(=O)Nc1ccc([N+](=O)[O-])c(C(F)(F)F)c1 [Flutamide] (max concentration tested 10000 nM) : 10.5
CN(C)C1CCN(C(=O)c2ccc(NC(=O)Nc3ccc(-c4nc(N5CCOCC5)nc(N5CCOCC5)n4)cc3)cc2)CC1 [Gedatolisib] (max concentration tested 1000 nM) : 73.4

// query Record request: % inhibition value, item C=CCn1c(=O)c2cnc(Nc3ccc(N4CCN(C)CC4)cc3)nc2n1-c1cccc(C(C)(C)O)n1 [MK1775] (max concentration tested 10000 nM)
// result 49.6

// query % inhibition lookup needed for CCCCC(=O)OCC(=O)[C@]1(O)Cc2c(O)c3c(c(O)c2[C@@H](O[C@H]2C[C@H](NC(=O)C(F)(F)F)[C@H](O)[C@H](C)O2)C1)C(=O)c1c(OC)cccc1C3=O [Valrubicin] (max concentration tested 5000 nM) , thanks.
// result 97.5

// query What value of measured % inhibition is listed for CC(C)c1cc(C(=O)N2Cc3ccc(CN4CCN(C)CC4)cc3C2)c(O)cc1O [Onalespib] (max concentration tested 2500 nM) ?
// result 81.9

// query Name the reported % inhibition value associated with the compound COc1cc(N2CCC(N3CCN(C)CC3)CC2)ccc1Nc1ncnc(Nc2ccccc2S(=O)(=O)C(C)C)n1 [ASP3026] (max concentration tested 10000 nM)
// result 2.45

// query Give the measured % inhibition of O=C(c1ccc(/C=C/c2n[nH]c3ccccc23)cc1)N1CCNCC1 [KW-2449] (max concentration tested 2500 nM) .
// result 10.1

---

- Tested on: YST-1
- ASSAY_INFO: % inhibition of CellTiter-Glo viability at highest tested concentration (72 h), relative to DMSO and benzethonium chloride controls; higher = more inhibition
READOUT_LABEL: % inhibition (%)
Provide the reading as a plain figure in %.

Worked examples, 10 molecules total:
Sc1ncnc2nc[nH]c12 [Mercaptopurine] (max concentration tested 10000 nM) : 13.2
COc1c(C)cnc(Cn2cnc3c(Cl)nc(N)nc32)c1C [BIIB021] (max concentration tested 10000 nM) : 84.3
COc1cc(OC2CCN(C)CC2)ccc1Nc1ncc2c(n1)n(C1CCCC1)c(=O)n2C [AZ 3146] (max concentration tested 10000 nM) : 68.7
C=C1C[C@@H]2[C@H](CC[C@]3(C)C(=O)CC[C@@H]23)[C@@]2(C)C=CC(=O)C=C12 [Exemestane] (max concentration tested 10000 nM) : -11.7
CC(C)C[C@H](NC(=O)[C@H](Cc1ccccc1)NC(=O)c1cnccn1)B(O)O [Bortezomib] (max concentration tested 1000 nM) : 100
CCn1c(-c2nonc2N)nc2cnc(Oc3cccc(NC(=O)c4ccc(OCCN5CCOCC5)cc4)c3)cc21 (max concentration tested 10000 nM) : 49.8
CC(C)N(C[C@H]1O[C@@H](n2cnc3c(N)ncnc32)[C@H](O)[C@@H]1O)[C@H]1C[C@@H](CCc2nc3cc(C(C)(C)C)ccc3[nH]2)C1 [Pinometostat] (max concentration tested 1000 nM) : -2.52
CC(=O)Nc1cccc(-n2c(=O)n(C3CC3)c(=O)c3c(Nc4ccc(I)cc4F)n(C)c(=O)c(C)c32)c1 [Trametinib] (max concentration tested 250 nM) : 4.55
Cn1cc(-c2ccc3nnc(C(F)(F)c4ccc5ncccc5c4)n3n2)cn1 (max concentration tested 10000 nM) : 18.4
O=C(Nc1cccc(Nc2ncc(Br)c(NCCc3cnc[nH]3)n2)c1)N1CCCC1 [BX-912] (max concentration tested 10000 nM) : 67

// query Any idea what % inhibition came out for COc1cc(O)c2c(c1)/C=C/C[C@H](O)[C@H](O)C(=O)/C=C\C[C@H](C)OC2=O [(5Z)-7-Oxozeaenol] (max concentration tested 10000 nM) on YST-1?
// result 26.6

// query % inhibition of Cc1cc(Nc2nc(N[C@@H](C)c3ncc(F)cn3)ncc2Cl)[nH]n1 [AZD1480] (max concentration tested 1000 nM) on YST-1?
// result 20.3

// query So what % inhibition did CNC(=O)c1ccc(N2C(=S)N(c3ccc(C#N)c(C(F)(F)F)c3)C(=O)C23CCC3)cc1F [RD162] (max concentration tested 10000 nM) get with YST-1?
// result 7.83

// query Provide the documented % inhibition with YST-1 as the system for CO[C@H]1C[C@@H]2CC[C@@H](C)[C@@](O)(O2)C(=O)C(=O)N2CCCC[C@H]2C(=O)O[C@H]([C@H](C)C[C@@H]2CC[C@@H](OC(=O)C(C)(CO)CO)[C@H](OC)C2)CC(=O)[C@H](C)/C=C(\C)[C@@H](O)[C@@H](OC)C(=O)[C@H](C)C[C@H](C)/C=C/C=C/C=C/1C [Temsirolimus] (max concentration tested 100 nM)
// result 46.1

// query Give YST-1 % inhibition for Cn1nnc2c(C(N)=O)ncn2c1=O [Temozolomide] (max concentration tested 100000 nM)
// result 11.6

// query Value wanted: % inhibition (YST-1) of entry O=S(=O)(c1cccc2c(O)nccc12)N1CCCNCC1 [Hydroxyfasudil] (max concentration tested 37500 nM)
// result 12.7

// query Fill in the recorded % inhibition for this molecule, with YST-1 as test system: Cc1c(F)cc(C(=O)NC2CC2)cc1-c1ccc(C(=O)NCC(C)(C)C)cn1 [Losmapimod] (max concentration tested 10000 nM)
// result 32.3

// query // lookup % inhibition | system=YST-1 | key= O=S(=O)(c1cccc2cnccc12)N1CCCNCC1 [Fasudil] (max concentration tested 50000 nM)
// result 51

// query Recall the recorded % inhibition for Cc1nc(-c2cn3c(n2)-c2ccc(-c4cnn(C(C)(C)C(N)=O)c4)cc2OCC3)n(C(C)C)n1 [Taselisib] (max concentration tested 1000 nM) with YST-1 and state it.
// result 66.6

// query So what % inhibition did O=C(c1cc(Cc2n[nH]c(=O)c3ccccc23)ccc1F)N1CCN(C(=O)C2CC2)CC1 [Olaparib] (max concentration tested 10000 nM) get with YST-1?
// result 69

// query Please tell me: % inhibition of O=c1sn(-c2cccc3ccccc23)c(=O)n1Cc1ccccc1 [Tideglusib] (max concentration tested 3000 nM) , system YST-1?
// result 3.93

// query Notebook entry, YST-1 assay: % inhibition of Cc1cc2c(F)c(Oc3ncnn4cc(OC[C@@H](C)O)c(C)c34)ccc2[nH]1 [Brivanib] (max concentration tested 1000 nM) = ?
// result 0.09

// query Request: % inhibition, test system YST-1, entry CN(Cc1cnc2nc(N)nc(N)c2n1)c1ccc(C(=O)N[C@@H](CCC(=O)O)C(=O)O)cc1 [Methotrexate] (max concentration tested 5000 nM)
// result 24.6

---

- Tested on: HS-PSS
- ASSAY_INFO: drug sensitivity score (DSS, CellTox-Green cytotoxicity, 72 h) (DSS (dimensionless)); higher = more cytotoxic; extreme values may be limits of the assay
READOUT_LABEL: drug sensitivity score
Respond numerically, and do not add a unit to the figure.

// query Can you look up the measured drug sensitivity score of Oc1ccc2c(c1)CC[C@H](c1ccccc1)[C@@H]2c1ccc(OCCN2CCCC2)cc1 [Lasofoxifene] (max concentration tested 1000 nM) for me?
// result 0

---

- System: HS-PSS
- ASSAY_INFO: drug sensitivity score (DSS, CellTiter-Glo viability, 72 h) (DSS (dimensionless)); higher = more sensitive; extreme values may be limits of the assay
READOUT_LABEL: drug sensitivity score
# answer = number (no unit)

NC1(c2ccc(-c3nc4ccn5c(=O)[nH]nc5c4cc3-c3ccccc3)cc2)CCC1 [MK-2206] (max concentration tested 1000 nM) : 1.05

// query What does the record list as drug sensitivity score for Cc1c(C(=O)Nc2ccc(N3C[C@@H](C)O[C@@H](C)C3)nc2)cccc1-c1ccc(OC(F)(F)F)cc1 [Sonidegib] (max concentration tested 10000 nM) ?
// result 3.23

// query Value lookup for drug sensitivity score; key = Cc1ncc(-c2ccnc(Nc3ccc(S(C)(=O)=O)cc3)n2)n1C(C)C [AZD-5438] (max concentration tested 10000 nM)
// result 12.4

Just for reference, the supplement of paper PMC5579334 is where these values come from.
